Can you tell me Cutaneous Toxicity Score (Blackjack Score) for the items I'm about to list?
System: skin of hairless mice
Assay: Topical Skin Irritation Test (cutaneous toxicity / Blackjack score)
Type: in vivo, hairless mouse (Cr1:SKH1-hrBR)
Conditions: 100 nmole (per 25 g), topical once daily days 1-5, mean±SD, range 0-21
Keep the answer to the number alone.

## Input Give its Cutaneous Toxicity Score (Blackjack Score) value. Item: CC1(C)CC2(CC2)Oc2c(C3CC3)cc(C(=O)Oc3ccc(CC(=O)O)cc3)cc21 [Compound 58]
## Output 0

## Input Check CN(C1CC1)C1CCC(C)(C)c2cc(C#Cc3ccc(CC(=O)O)c(F)c3)ccc21 (stereo not shown) [Compound 18] too.
## Output 0

## Input Check CC1(C)CCC(=O)c2ccc(C#Cc3ccc(CC(=O)O)c(F)c3)cc21 [Compound 15] too.
## Output 1

## Input Check CC1(C)CC2(CC2)Oc2c(C3CC3)cc(C#Cc3ccc(CC(=O)O)c(F)c3)cc21 [Compound 50] too.
## Output 1

## Input Check CC1(C)CCC(=O)c2ccc(C#Cc3ccc(CC(=O)O)cc3)cc21 [Compound 5] too.
## Output 0

## Input Check CC1(C)CC(C)(C)c2cc(C#Cc3ccc(CC(=O)O)cc3)cc(C3CC3)c2O1 [Compound 36] too.
## Output 1

## Input Check CC1(C)CC(C)(C)c2cc(C#Cc3ccc(CC(=O)O)c(F)c3)cc(C3CC3)c2O1 [Compound 38] too.
## Output 1

###

Test system: skin of hairless mice
Assay: Topical Skin Irritation Test (cutaneous toxicity / Blackjack score)
Assay type: in vivo, hairless mouse (Cr1:SKH1-hrBR)
Conditions: 300 nmole (per 25 g), topical once daily days 1-5, mean±SD, range 0-21
Can you tell me Cutaneous Toxicity Score (Blackjack Score) for the items I'm about to list?

## Input Give its Cutaneous Toxicity Score (Blackjack Score) value. Item: CN(C1CC1)C1CCC(C)(C)c2cc(C#Cc3ccc(CC(=O)O)c(F)c3)ccc21 (stereo not shown)
## Output 5 ± 2

## Input Check CC1(C)CN(C2CC2)Cc2ccc(C#Cc3ccc(CC(=O)O)c(F)c3)cc21 too.
## Output 0 ± 0

## Input Check CC1(C)CC2(CC2)Oc2c(C3CC3)cc(C#Cc3ccc(CC(=O)O)c(F)c3)cc21 too.
## Output 3 ± 2

## Input Check CC1(C)CCC(n2ccnc2)c2ccc(C#Cc3ccc(CC(=O)O)cc3)cc21 (stereo not shown) too.
## Output 1 ± 1

## Input Check CN(C1CC1)C1CCC(C)(C)c2cc(C#Cc3ccc(CC(=O)O)cc3)ccc21 (stereo not shown) too.
## Output 8 ± 3

## Input Check CC1(C)CC2(CC2)Oc2c(C3CC3)cc(C#Cc3ccc(CC(=O)O)cc3)cc21 too.
## Output 3 ± 1

## Input Check CC1(C)CC2(CC2)Oc2c(C3CC3)cc(C(=O)Oc3ccc(CC(=O)O)cc3)cc21 too.
## Output 0 ± 0

###

Tested on: skin of hairless mice
Assay: Topical Skin Irritation Test (cutaneous toxicity / Blackjack score)
Type: in vivo, hairless mouse (Cr1:SKH1-hrBR)
Details: 1000 nmole (per 25 g), topical once daily days 1-5, mean±SD, range 0-21
assay_endpoint: Cutaneous Toxicity Score (Blackjack Score)

## Input Record CC1(C)CC2(CC2)Oc2c(C3CC3)cc(C#Cc3ccc(CC(=O)O)c(F)c3)cc21 : what is its Cutaneous Toxicity Score (Blackjack Score) with skin of hairless mice?
## Output 8 ± 2

## Input Check CC1(C)CC2(CC2)Oc2c(C3CC3)cc(C#Cc3ccc(CC(=O)O)cc3)cc21 too.
## Output 7 ± 2

## Input Check CC1(C)CCC(=O)c2ccc(C#Cc3ccc(CC(=O)O)cc3)cc21 too.
## Output 6 ± 3

###

Can you tell me Cutaneous Toxicity Score (Blackjack Score) for the items I'm about to list?
System: skin of hairless mice
Assay: Topical Skin Irritation Test (cutaneous toxicity / Blackjack score)
Type: in vivo, hairless mouse (Cr1:SKH1-hrBR)
Conditions: 100 nmole (per 25 g), topical once daily days 1-5, mean±SD, range 0-21

## Input Give its Cutaneous Toxicity Score (Blackjack Score) value. Item: CC1(C)CC2(CC2)Oc2c(C3CC3)cc(C#Cc3ccc(CC(=O)O)cc3)cc21
## Output 1 ± 1

## Input Check CN(C1CC1)C1CCC(C)(C)c2cc(C#Cc3ccc(CC(=O)O)cc3)ccc21 (stereo not shown) too.
## Output 5 ± 2

## Input Check CC1(C)CCC(n2ccnc2)c2ccc(C#Cc3ccc(CC(=O)O)cc3)cc21 (stereo not shown) too.
## Output 1 ± 1

## Input Check CC1(C)CN(C2CC2)Cc2ccc(C#Cc3ccc(CC(=O)O)c(F)c3)cc21 too.
## Output 0 ± 0
